system: L1210; experiment: Inhibition of proliferation of Murine Leukemia (L1210) cells was measured; format: functional; settings: Mus musculus, read-out: ID50 (the source's name)
metric: IC50 (µg/mL)
The reply should be a number in µg/mL, with the unit left off.

Some solved entries appear below for comparison.
smiles.text	unit.text	IC50
Cl.Cn1cc(NC(=O)c2cc(NC(=O)C(Cl)(Cl)Cl)cn2C)cc1C(=O)NCCC(=N)N	µg/mL	30.5
Cl.Cn1cc(NC(=O)c2cc(NC(=O)CCl)cn2C)cc1C(=O)NCCC(=N)N	µg/mL	8.7
Cl.Cn1cc(NC(=O)c2cc(NC(=O)CF)cn2C)cc1C(=O)NCCC(=N)N	µg/mL	40.3

Next up:
input: What is its IC50 for L1210? Entry: Cl.Cl.Cn1cc(NC(=O)c2cc(NC(=O)c3cc(NC=O)cn3C)cn2C)cc1C(=O)NCCC(=N)N
output: 27.1

Origin of values: ChEMBL document CHEMBL1124029
